- ASSAY INFO: soluble on expression in E. coli; label from the status in PepcDB or PDB records
RECORDED METRIC: soluble on expression in E. coli

INSERT INTO results (polymer_sequence, value_reported) VALUES
  ('MAHHHHHHMASLMGFLTVSKISEPPKASVAQEAFDYIYERIAAPAEVDVERFLEIGHFESLATATCLSLEDLSLYLFAFAVDESAKRIYKISEKHFVAWMAGLISKLPRNAAPPTRENAYAPLFAAAHDAIVDLNNTIRSNEEKRSKFYQFLYNWCLKGNDASDRVDSAKELWSCFFSASPVSLTVEEARRKFTAYVCFPRINQWLDFITMLGEKATESKSGRVAVEQSGVSFDTWTQLLLFARFDNYDAYDDEDSWPVTMDDFVVYVRKLEESKKV', 'not soluble'),
  ('MATVGGAFKDSLTQAQKDELHQIALKIVQDGKGILAADESTGTIGKRLDAINLENNETNRQKYRQLLFTTPNLNQHISGVILYEETFHQSTDKGEKFTDLLIKQGIVPGIKLDLGVVPLAGTIGEGTTQGLDKLAERAAAFKKGGCGFAKWRCVLNIGTHTPSHLGMLENANVLARYASICQANGLVPIVEPEVLCDGEHDLARAQKVTEQVLAFVYKALADHHVYLEGTLLKPNMVTPGQSSASKASHEAIGLATVTALRRGVPAAVPGITFLSGGQSELDATANLNAINSVQLGKPWKLTFSYGRALQASVLKAWGGKDENIAAAQKTLLHRSKANGDASLGKYAGEDAAGAAAESLFVAKHSY', 'not soluble'),
  ('MASISRFRGCLAGALLGDCVGAVYEAHDTVSLASVLSHVESLEPDPGTPGSARTETLYYTDDTAMTRALVQSLLAKEAFDEVDMAHRFAQEYKKDPDRGYGAGVITVFKKLLNPKCRDVYEPARAQFNGKGSYGNGGAMRVAGISLAYSSVQDVQKFARLSAQLTHASSLGYNGAILQALAVHLALQGVSSSEHFLEQLLGHMEELEGDAQSVLDAKELGMEERPYSSRLKKVGELLDQDVVSREEVVSELGNGIAAFESVPTAIYCFLRCMEPHPEIPSTFNSLQRTLIYSISLGGDTDTIATMAGAIAGAYYGMEQVPESWQQSCEGFEETDVLAQSLHRVFQES', 'soluble'),
  ('EQLPVLQTVPFAGSAEPVSLTRESVERSVGEANMQEQRKRVHAMLRDYELQLRINSDASQQDAHLTPDSE', 'not soluble'),
  ('MGSDKIHHHHHHMTLATMKLQILSDLHIDSYVRQSHPIGHIPKTDADIVLVAGDTANSDIGMPWLQEQAARLQVPLITIAGNHEYFNEDVLHFDKKLATWDNYDSESKQGVQFLQCQYIDIGEVRILGCTLWTDYQYQANEDTMVAALRFMRDYKQIYAGSELFSPEVSMQIHAKQRQWLKQALITAKALGKKTVVMSHHSISPLSVSEKYANLPSNAAFVSDLSQWMYEDWAPALWVHGHTHEAFDYHIHKTRVIVNPRAYPNEVSSTALAFAWDRVIDIG', 'not soluble'),
  ('MNYQDNSLKSLKLGQKTEYASQYDRTLLQPVPRALNRDGLGITQNQPFTIGADIWTAYEISWLNEKGLPQVAIADIYLDYQSQNLIESKSFKLYLNSFNQSKFADFNAVQQTMQRDLSECAQGDVKVRLNPMAVYDSQKIDHLQGDCIDEQDIEITSYEFNANWLKDCVSDEIVEEKLVSHLLKSNCLITNQPDWGTLHIHYVGKKINQEKLLRYVVSFRQHNEFHEQCVERIFCDLMHYAKPEKLTVYARYTRRGGLDINPFRSNFENLPENLRLARQ', 'soluble');

---

- ASSAY INFO: soluble on expression in E. coli; label from the status in PepcDB or PDB records
RECORDED METRIC: soluble on expression in E. coli

INSERT INTO results (polymer_sequence, value_reported) VALUES
  ('SLKKIVESTTFPRTKQSITEDLKALGLKKGMTVLVHSSLSSIGWVNGGAVAVIQALIDVVTEEGTIVMPSQSVELSDPKEWGNPPVPEEWWDIIRESMPAYNSNYTPTTRGMGQIVELFRSYPEVKRSNHPNYSFVAWGKHKNKILNQHPLEFGLGEQSPLGKLYIRESYVLLLGADFDSSTCFHLAEYRIPYQKIINRGAPIIVEGKRVWKEYKELEFREELFQEVGQAFEAEHNMKVGKVGSANCRLFSLTEAVDFAEKWFINNDSKNIKK', 'soluble'),
  ('MFRPASIAVTAALCACALPALASETLNSRTDVLAALEAGYDVSVSTDLSRCTPEEGTPVSRTRGGRHIDAYRITEDGNVAFSGAHFTVANDGKPIQQFMRYQLRPDGSVRFTTYMYDLPGLQQRGPVLAYQCAFNEGARFHADLEHHHHHH', 'soluble'),
  ('MSLSIALIAPYESLATLCRSICQELDLDVSVHTGSMEDGVRIARNLMAEGVDFFISRGLTAQLIREQCPLPVAELEVSAFDIYLCLEPLLRSGKSIGVVGHSDILRKAKGASAALGFTIDFYATAHPGGMGHIMEAARRQGIAAIAGDAVAARTAERYGMEGVLVQNGADSVTNTLQYAVATYSYLTRQATMAGRLQTVLDRMDGGALLASPDGRMLHCNAAVRAMLEPDQGCTETSMDDLFPQLDWRAVPEGRAETVRELVTVGGSKLAVTVTGTMHDDAMDALICTFHDVRQIEQLEHSFRKSEGHHHHHH', 'soluble');

---

- ASSAY INFO: soluble on expression in E. coli; label from the status in PepcDB or PDB records
RECORDED METRIC: soluble on expression in E. coli

INSERT INTO measurements (polymer_sequence, value_reported) VALUES
  ('MSPTTDRIAVVGGSISGLTAALMLRDAGVDVDVYERSPQPLSGFGTGIVVQPELVHYLLEQGVELDSISVPSSSMEYVDALTGERVGSVPADWRFTSYDSIYGGLYELFGPERYHTSKCLVGLSQDSETVQMRFSDGTKAEANWVIGADGGASVVRKRLLGIEPTYAGYVTWRGVLQPGEVADDVWNYFNDKFTYGLLDDGHLIAYPIPGRENAESPRLNFQWYWNVAEGPDLDELMTDVRGIRLPTSVHNNSLNPHNLRQFHSKGESLFKPFRDLVLNASSPFVTVVADATVDRMVHGRVLLIGDAAVTPRPHAAAGGAKASDDARTLAEVFTKNHDLRGSLQSWETRQLQQGHAYLNKVKKMASRLQHGGSFEPGNPAFAFGLPKVDEPSVVTNS', 'soluble'),
  ('GSHMQPMQAMKIERGTILTQPGVFGVFTMFKLRPDWNKVPAMERKGAAEEVKKLIEKHKDNVLVDLYLTRGLETNSDFFFRINAYDLAKAQTFMREFRSTTIGKNADVFETLVGVTKPLNYISKDKSPGLNAGLSSATYSGPAPRYVIVIPVKKNAEWWNMSPEERLKEMEVHTTPTLAYLVNVKRKLYHSTGLDDTDFITYFETDDLTAFNNLMLSLAQVKENKFHVRWGSPTTLGTIHSPEDVIKALAD', 'soluble');

---

- ASSAY INFO: soluble on expression in E. coli; label from the status in PepcDB or PDB records
RECORDED METRIC: soluble on expression in E. coli

INSERT INTO assay_data (polymer_sequence, value_reported) VALUES
  ('MGSDKIHHHHHHMREISMDWNDLRFFLEVARTSSLTKTAIKLKVSQSTVSRRIGALESSLKTRLFLHHQTGYFLTDVGKEVLKYAEDVEGKVGTLEKKISGRDLAPAGIVRLATAVTLANHLIIPQLPRFMACYPEIILELVTGVNTVSVVRNDADIALRLVRPEQNSLKIRKVGVVASAVYGSETYVREHPAPEDNPIIGRSFITWDKSFSHLPSARWLNEHFPDMTSTLALTSLVTQIAAANAGLGLAVLPCFIAAQNSDLVEVIHTQRVFSEDLWLVSHTDLIASSRIRVVADFLMEIIAEAHLA', 'not soluble'),
  ('MAHHHHHHMNAVKLPEEWETLCSTNDAEVIHECINGVFRRLLANLLLDFNNPKLRQVKKDNKALHRLTDSLPAGFIEFLFSSIGFVEHDDVFIFEGSPESLKHGDAVLSYIEDSFGKERLQAAECELHRLRNLAIKKAENGLAPREMMTATAPLPRTQPLPQEEDAKRQAQHSGTEKDVAEEHAVKETVRKTLLNTGRVRNGFFEARDFSVRIMQHGRVYACTEKCPDHCVEVHWHLLTGRNILYSHLAHLSADGTRLLHLGPEHGYQYNSLPGSANFGKMIHFSEKLMDENGRLVHIKNDDKPVTACIYCGRAFAQLLL', 'not soluble');

---

- ASSAY INFO: soluble on expression in E. coli; label from the status in PepcDB or PDB records
RECORDED METRIC: soluble on expression in E. coli

INSERT INTO measurements (polymer_sequence, recorded_metric, value_reported) VALUES
  ('MGSDKIHHHHHHMTGNDWIGSALHNSITCMGHSAAALAAPFAQASRRLIATLQAGGQVLSCGNGGSSGDAQHLASELVNRFETTRRALPAIALSTDSSVVTAIANDVCYEQIFARQIEALGRPGDCLVAFSTSGNSTNVIAAARTAQQRGMWVLALTGKEGGQLALLLRPVDIELRVPEQNTARIQEVHLVLIHALCSGVDASFVGDAPASVFHTGQVLRDWEALDEACTFRRPLVFTNGVFDVLHRGHVQYLAEARAEGACLVVGVNSDASVRRLGKGADRPVNSEEDRMAVLAGLQAVDFVTVFDDDTPLKLIQHLQPDVLIKGGDWPIERIVGADWVQAGGGRVLSIPFRHERSTTALLQKIRGSQP', 'soluble on expression in E. coli', 'not soluble'),
  ('MGSDKIHHHHHHMRKPKITVIGGGTGSPVILKSLREKDVEIAAIVTVADDGGSSGELRKNMQQLTPPGDLRNVLVAMSDMPKFYEKVFQYRFSEDAGAFAGHPLGNLIIAGLSEMQGSTYNAMQLLSKFFHTTGKIYPSSDHPLTLHAVFQDGTEVAGESHIVDHRGIIDNVYVTNALNDDTPLASRRVVQTILESDMIVLGPGSLFTSILPNIVIKEIGRALLETKAEIAYVCNIMTQRGETEHFTDSDHVEVLHRHLGRPFIDTVLVNIEKVPQEYMNSNRFDEYLVQVEHDFVGLCKQVSRVISSNFLRLENGGAFHDGDLIVDELMRIIQVKK', 'soluble on expression in E. coli', 'not soluble'),
  ('PNSPINKLVLNDIGPQIPIHGLRRIAKYAGKAPDFKSLEEAKQHFKASYADFGITNEKQWDIFTKNSVEQRGPNLYVTKMDPAIKKSKSILQIISEFFRHPHKALEGIFYDINLWSIWKQIKCPVIVIHGVNSDILTSEIITQMKKTHALTEVYEVENAGHAPALLDLTVHQRIEDWLATH', 'soluble on expression in E. coli', 'not soluble');
